Catalogue of pH (24 hours) values
# PROTOCOL DETAILS: Solubility test of compounds of formula (I)-(IV) in 4 vehicles (water, SGF, FaSSIF, FeSSIF), HPLC
# Assay type: physicochemical
# EXPERIMENTAL SETUP: pH of sample in FeSSIF (vehicle pH 4.59), 24 hours
Give the figure only, with no unit attached.

Consider the following illustrative entries.
COMPOUND: C[C@@H](Oc1ccc2[nH]nc(/C=C(\F)c3ccc(CNC4CCOCC4)nc3)c2c1)c1c(Cl)cncc1Cl.O=C(O)CC(O)(CC(=O)O)C(=O)O [compound of formula (III)]
RECORDED NUMBER: 4.97

COMPOUND: C[C@@H](Oc1ccc2[nH]nc(/C=C(\F)c3ccc(CNC4CCOCC4)nc3)c2c1)c1c(Cl)cncc1Cl [compound of formula (I)]
RECORDED NUMBER: 5.01

COMPOUND: C[C@@H](Oc1ccc2[nH]nc(/C=C(\F)c3ccc(CNC4CCOCC4)nc3)c2c1)c1c(Cl)cncc1Cl.O=C(O)C[C@H](O)C(=O)O [compound of formula (IV)]
RECORDED NUMBER: 4.95

Next item in the queue.
Exam item: Annotate the compound C[C@@H](Oc1ccc2[nH]nc(/C=C(\F)c3ccc(CNC4CCOCC4)nc3)c2c1)c1c(Cl)cncc1Cl [compound of formula (II)] with its measured pH (24 hours).
Marked response: 4.91
